Target: P2X2/3 (Homo sapiens, UniProt P56373+Q9UBL9)
Sequence (Q9UBL9 whole entry): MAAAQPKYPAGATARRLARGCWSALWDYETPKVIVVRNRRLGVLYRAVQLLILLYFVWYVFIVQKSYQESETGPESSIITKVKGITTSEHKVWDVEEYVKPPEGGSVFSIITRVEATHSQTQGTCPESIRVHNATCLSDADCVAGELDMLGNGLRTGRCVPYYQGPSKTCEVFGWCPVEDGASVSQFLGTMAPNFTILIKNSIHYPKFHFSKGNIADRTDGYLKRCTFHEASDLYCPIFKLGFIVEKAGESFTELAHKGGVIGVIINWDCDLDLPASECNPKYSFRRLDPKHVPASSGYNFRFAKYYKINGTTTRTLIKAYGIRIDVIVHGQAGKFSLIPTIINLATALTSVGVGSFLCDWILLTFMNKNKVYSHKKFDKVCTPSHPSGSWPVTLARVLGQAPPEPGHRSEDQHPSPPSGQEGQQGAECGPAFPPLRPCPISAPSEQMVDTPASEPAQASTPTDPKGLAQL
Sequence (P56373 whole entry): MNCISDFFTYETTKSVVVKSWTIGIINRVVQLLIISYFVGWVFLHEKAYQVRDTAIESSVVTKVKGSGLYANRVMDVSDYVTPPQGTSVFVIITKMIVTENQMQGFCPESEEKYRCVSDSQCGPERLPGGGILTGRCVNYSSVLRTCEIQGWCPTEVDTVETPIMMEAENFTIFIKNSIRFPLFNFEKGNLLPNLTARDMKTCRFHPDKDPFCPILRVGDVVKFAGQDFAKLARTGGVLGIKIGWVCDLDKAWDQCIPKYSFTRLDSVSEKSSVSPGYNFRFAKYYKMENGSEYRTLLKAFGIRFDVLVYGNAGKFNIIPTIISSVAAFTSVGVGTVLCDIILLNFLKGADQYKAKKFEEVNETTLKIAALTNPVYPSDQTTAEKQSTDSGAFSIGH
Assay: P2X2/3 FLIPR intracellular calcium assay
Conditions: agonist at EC75, species (human or rat) not given
property name: IC50

Illustrative cases are given below, each with its answer.
* Cc1ccc(-c2cnc3c(Nc4ncc(C)s4)cc(C(=O)N[C@@H](C)c4nnc[nH]4)cn23)s1 [Example 94] | 1 to 10 µM
* Cc1ccc(-c2cnc3c(-n4nncc4CC(F)(F)F)cc(C(=O)N[C@@H](C)c4nnc[nH]4)cn23)s1 [Example 81] | 0.001 to 0.1 µM
* CCc1cnnn1-c1cc(C(=O)NCc2cnc(C)nc2)cn2c(-c3ncc(C)s3)cnc12 [Example 75] | 0.1 to 1 µM
* Cc1ccccc1-c1cnc2c(N3CCC(C)CC3)cc(C(=O)NCc3ccc(C)[n+]([O-])c3)cn12 [Example 150] | 0.1 to 1 µM
* Cc1ccc(-c2cnc3c(-n4nnnc4C(C)C)cc(C(=O)NCc4ccc(C(F)(F)F)nc4)cn23)s1 [Example 152] | 0.1 to 1 µM
* CCc1cnnn1-c1cc(C(=O)NCc2ccc(C)nc2)cn2c(-c3ccc(C)s3)cnc12 [Example 22] | 0.001 to 0.1 µM
* Cc1cnc(CNC(=O)c2cc(N3CCC(C)CC3)c3ncc(-c4ccc(C)s4)n3c2)cn1 [Example 116] | 0.1 to 1 µM
* CCn1nccc1-c1cc(C(=O)N[C@@H](C)c2nnc[nH]2)cn2c(-c3ccc(C)s3)cnc12 [Example 103] | 0.1 to 1 µM

Specify measured IC50 for Cc1ccc(CNC(=O)c2cc(-c3c(C)noc3C)c3ncc(-c4ccc(C)s4)n3c2)cn1 [Example 106] . 0.001 to 0.1 µM

For the compound COc1ncc(CNC(=O)c2cc(-n3nncc3C(F)F)c3ncc(-c4ccc(C)s4)n3c2)cn1 [Example 35] , report IC50. 0.001 to 0.1 µM

Let me know recorded IC50 for CCC(=O)N(c1cc(C(=O)N[C@@H](C)c2nnc[nH]2)cn2c(-c3ccc(C)s3)cnc12)C1CC1 [Example 188] , thanks. 0.1 to 1 µM

Read the entry Cc1ccc(-c2cnc3c(-c4cnn(CC(N)=O)c4)cc(C(=O)N[C@@H](C)c4nnc[nH]4)cn23)s1 [Example 112] and write its reported IC50. 1 to 10 µM

For CC[C@H](NC(=O)c1cc(-n2nncc2C(C)C)c2ncc(-c3ccc(Cl)s3)n2c1)c1nnc[nH]1 [Example 69] , write its IC50. 0.1 to 1 µM

Give the measured IC50 for COC1(C)CCN(c2cc(C(=O)N[C@@H](C)c3nnc[nH]3)cn3c(-c4ccc(C)s4)cnc23)CC1 [Example 139] 0.1 to 1 µM

Please report IC50 for the following compound: C[C@H](NC(=O)c1cc(-n2nnnc2C2CC2)c2ncc(-c3ccc(Cl)s3)n2c1)c1nnc[nH]1 [Example 175] 1 to 10 µM

Give me measured IC50, please, for this compound: Cc1ccc(CNC(=O)c2cc(-c3cnn(C)c3)c3ncc(-c4ccc(C)s4)n3c2)cn1 [Example 98] 0.1 to 1 µM

Specify reported IC50 for the compound shown: COc1ncc(CNC(=O)c2cc(-n3nncc3C3CC3)c3ncc(-c4ccc(C)s4)n3c2)cn1 [Example 42] 0.001 to 0.1 µM

Supply IC50 value. Item: Cc1ccc(-c2cnc3c(-c4cnn(CC5CC5)c4)cc(C(=O)N[C@@H](C)c4nnc[nH]4)cn23)s1 [Example 104] 0.1 to 1 µM
